system: HepG2; assay: cell viability relative to DMSO; higher = less toxic; conditions: 72 h; 100 nM
measurement name: cell viability (%)
Numbers only; they are read as %.

Look over these answered cases.
CCc1ccc(C(=O)C(C)CN2CCCCC2)cc1 (centres undefined)
95.8
CN(C)c1ccc(/C=C2\CCCN=C2c2cccnc2)cc1
98.2
OC(c1ccccc1)(c1ccccc1)C12CC[N+](CCOCc3ccccc3)(CC1)CC2
101
NS(=O)(=O)c1cc(C2(O)NC(=O)c3ccccc32)ccc1Cl (centres undefined)
97.7
NC(CO)C(=O)NNCc1ccc(O)c(O)c1O (centres undefined) [benserazide]
104
CCCCC[C@H](O)/C=C/[C@H]1[C@H](O)CC(=O)[C@@H]1C/C=C\CCCC(=O)O
90.4

**Query** Write down the reported cell viability of `CC(=O)C1=C(O)[C@@H]2[C@H]3c4c[nH]c5cccc(c45)C[C@H]3C(C)(C)N2C1=O` , test system: HepG2.
**Result** 103

**Query** Note, next up: `Cc1c(O)c(=O)ccn1C`
**Result** 98.3

**Query** Note, next up: `CC1(CN)Cc2ccccc2C1`
**Result** 96.3

====

// drug sensitivity score lookup, one value per entry
system: HepG2; assay: drug sensitivity score (DSS) for viability; higher = more toxic; extreme values may be limits of the assay; conditions: 72 h
Quick one: just the number, no unit, thanks!

CO/N=C(\C(=O)N[C@@H]1C(=O)N2C(C(=O)[O-])=C(C[n+]3ccn4ncccc43)CS[C@H]12)c1nsc(N)n1 [cefozopran]
0
CNC(=O)CN(CCN(CCN(CC(=O)[O-])CC(=O)NC)CC(=O)[O-])CC(=O)[O-].[Gd+3] [gadodiamide]
0
C[C@]12C=CC(=O)C=C1CC[C@@H]1[C@@H]2[C@@H](O)C[C@@]2(C)[C@H]1CC[C@]2(O)C(=O)COP(=O)(O)O [prednisolone-sodium-phosphate]
0
O=S(=O)(c1cccc2cnccc12)N1CCNCC1 [C-1]
0
NS(=O)(=O)c1cc(C2(O)NC(=O)c3ccccc32)ccc1Cl (stereo unspecified) [chlorthalidone]
0
CCS(=O)(=O)c1ccc2oc(-c3ccc4ccccc4c3)nc2c1 [ezutromid]
0

**Query** # lookup: drug sensitivity score of CN(C)c1ccc(/C=C2\CCCN=C2c2cccnc2)cc1 [DMAB-anabaseine]
**Result** 0.1

**Query** Note, next up: Fc1ccc(C(c2ccccc2)(c2ccccc2F)n2ccnc2)cc1 (stereo unspecified) [flutrimazole]
**Result** 0

**Query** Note, next up: Clc1ccc(C(c2ccc(Cl)cc2)C(Cl)(Cl)Cl)cc1 [4,4'-DDT]
**Result** 0

**Query** Note, next up: Cc1ccc(-c2n[nH]c3c2C(c2cccc(O)c2)N(c2ccc(C(=O)O)cc2)C3=O)cc1 (stereo unspecified)
**Result** 0

**Query** Note, next up: c1ccc(-c2ccc(CNc3nc(-c4ccccn4)nnc3-c3ccccc3)cc2)cc1 [ML228]
**Result** 12.5

**Query** Note, next up: Cc1cccc(C)c1NC(=O)CN1CCN(CCCC(c2ccc(F)cc2)c2ccc(F)cc2)CC1 [lidoflazine]
**Result** 1

**Query** Note, next up: O=C(Nc1ccccc1)N1CCC(Cc2cnc3ccccc3c2)CC1 [PF-750]
**Result** 0

**Query** Note, next up: CCc1ccc(/C=C/C(=O)Nc2ccc(C(C)=O)cc2)o1 [heclin]
**Result** 0.4

**Query** Note, next up: Cc1cc(O)c2c(c1)C(=O)c1cccc(O)c1C2=O [chrysophanic-acid]
**Result** 0

**Query** Note, next up: Cc1ncc(C[n+]2csc(CCOP(=O)(O)OP(=O)(O)O)c2C)c(N)n1 [thiamine-pyrophosphate]
**Result** 0
